Source listed as patent US10770169B2.

System: panel of 55 breast cancer cell lines
run-description: Cell growth inhibition assay (Cell Titer Glo, 72 h, 9 doses; GI50, TGI, LC50)
Format: cell-based, human
particulars: SUM185PE cell line; censored GI50 values; value is the negative log10 of mol/L
# note: boundary value 5 maps to Not met; GI50 below it maps to Met

Challenge: Dear colleague, could you confirm whether GI50 of CNC(=O)c1c(F)cccc1Nc1nc(Nc2cc3c(cc2OC)CCN3C(=O)CN(C)C)nc2[nH]ccc12 [GSK1838705A] falls below 5? Thanks.
Response given: Not met

Challenge: Is the reported GI50 for `O=C1NC(=O)/C(=C/c2ccc(-c3ccc(F)cc3O)o2)S1` strictly below 5?
Response given: Not met

Challenge: Please check: GI50 for `CC(/C=C/C(=O)NO)=C\[C@@H](C)C(=O)c1ccc(N(C)C)cc1` , strictly under 5 or not?
Response given: Met

Challenge: I'd appreciate it if you could check whether `CC(C)[C@H](CO)Nc1nc(Nc2cccc(Cl)c2)c2ncn(C(C)C)c2n1` has GI50 smaller than 5.
Response given: Met

Challenge: Please state whether GI50 is below 5 for `N.N.O=C([O-])C1(C(=O)[O-])CCC1.[Pt+2]`
Response given: Met

Challenge: Report whether reported GI50 is lower than 5 (strictly) for `Cc1cc(Nc2cc(N3CCN(C)CC3)nc(Sc3ccc(NC(=O)C4CC4)cc3)n2)n[nH]1`
Response given: Not met

Challenge: Just wondering, is GI50 of `CCn1cc(-c2ccnc3[nH]c(-c4cccc(CN(C)C)c4)cc23)c(-c2ccc(NC(=O)N(C)C)cc2)n1` below 5?
Response given: Not met

Challenge: API: query returns whether the compound falls strictly under 5 in GI50. Query: `CC(C)Oc1ccc(C(=O)N[C@H](CNC(=O)CN(C)C)Cc2ccc(-c3cn4cccc([C@H](C)O)c4n3)cc2)cc1Cl`
Response given: Not met

====

Please provide measured GI50 for the entries that follow.
System: panel of 55 breast cancer cell lines
run-description: Cell growth inhibition assay (Cell Titer Glo, 72 h, 9 doses; GI50, TGI, LC50)
Format: cell-based, human
particulars: Homo sapiens, MDA-MB-157, cell line MDAMB157; read-out: GI50 (converted)
Don't forget the unit after the number, please.

`CO[C@H]1C[C@@H]2CC[C@@H](C)[C@@](O)(O2)C(=O)C(=O)N2CCCC[C@H]2C(=O)O[C@H]([C@H](C)C[C@@H]2CC[C@@H](O)[C@H](OC)C2)CC(=O)[C@H](C)/C=C(\C)[C@@H](O)[C@@H](OC)C(=O)[C@H](C)C[C@H](C)/C=C/C=C/C=C/1C` has a reported GI50 of 166 µM

Data point: COc1cccc2c1C(=O)c1c(O)c3c(c(O)c1C2=O)C[C@@](O)(C(=O)CO)C[C@@H]3O[C@H]1C[C@H](N)[C@@H](O)[C@H](C)O1 [Epirubicin] ; GI50 = 0.55 µM

GI50 in this record for COc1cc([C@@H]2c3cc4c(cc3[C@@H](O[C@@H]3O[C@@H]5CO[C@@H](C)O[C@H]5[C@H](O)[C@H]3O)[C@H]3COC(=O)[C@H]23)OCO4)cc(OC)c1O [Etoposide] : 0.955 µM

Given item `Nc1nc2[nH]cc(CCc3ccc(C(=O)N[C@@H](CCC(=O)O)C(=O)O)cc3)c2c(=O)[nH]1` , the value recorded as its GI50 is 2950 µM

Summary for this molecule, `CC[C@@]1(O)C(=O)OCc2c1cc1n(c2=O)Cc2cc3c(CN(C)C)c(O)ccc3nc2-1` : GI50 is 0.398 µM

====

Tested on: panel of 55 breast cancer cell lines
run-description: Cell growth inhibition assay (Cell Titer Glo, 72 h, 9 doses; GI50, TGI, LC50)
Assay type: cell-based, human
particulars: cell line HCC1806; value is the negative log10 of mol/L
value-kind: GI50
Could you keep your reply to the number by itself?

Log: panel of 55 breast cancer cell lines, compound `COc1cc2ncnc(Nc3cccc(Cl)c3)c2cc1OC` , GI50 = 4.07

Tested on panel of 55 breast cancer cell lines: CCNCCCCNCCCCNCCCCNCCCCNCC=CCNCCCCNCCCCNCCCCNCCCCNCC.Cl.Cl.Cl.Cl.Cl.Cl.Cl.Cl.Cl.Cl (stereo in doubt) . Observed GI50: 6.71

The compound O=S(=O)(CC1CS1)c1ccc(Oc2ccccc2)cc1 (stereo not shown) , when measured on panel of 55 breast cancer cell lines, yielded GI50 of 4.00

The compound Cc1cc(C(=O)N2CCN(c3cccc(Cl)c3)CC2)n(-c2ccccc2)n1 [XRP44X] , when measured on panel of 55 breast cancer cell lines, yielded GI50 of 5.92

====

Please go through the items and note down their GI50.
System: panel of 55 breast cancer cell lines
run-description: Cell growth inhibition assay (Cell Titer Glo, 72 h, 9 doses; GI50, TGI, LC50)
Assay type: cell-based, human
particulars: cell line HCC1419; censored GI50 values; value is the negative log10 of mol/L
Reply with just the number.

Case COc1ncc(-c2ccc3nccc(-c4ccnnc4)c3c2)cc1NS(=O)(=O)c1ccc(F)cc1F [GSK2126458A] , panel of 55 breast cancer cell lines, GI50 recorded as 8.75

The measured GI50 that `COc1ccc(C2=N[C@@H](c3ccc(Cl)cc3)[C@@H](c3ccc(Cl)cc3)N2C(=O)N2CCNC(=O)C2)c(OC(C)C)c1` showed for panel of 55 breast cancer cell lines is 4.39

Reading of GI50 for O=C1NC(=O)/C(=C/c2ccc3nccc(-c4ccncc4)c3c2)S1 [GSK1059615B] with panel of 55 breast cancer cell lines: 6.59

GET /values?item= `COc1cc2c(Nc3ccc(NC(=O)c4ccccc4)cc3)ncnc2cc1OCCCN1CCOCC1` &system= panel of 55 breast cancer cell lines returns GI50: 5.32

====

Test system: panel of 55 breast cancer cell lines
run-description: Cell growth inhibition assay (Cell Titer Glo, 72 h, 9 doses; GI50, TGI, LC50)
Format: cell-based, human
particulars: cell line HCC1143; value is the negative log10 of mol/L
value-kind: GI50
Please give the numeric answer without any surrounding text.

The compound identified as `O=C1C(Cl)=C(NCCN2CCOCC2)C(=O)c2ncccc21` registered its GI50 at 5.70

The value of GI50 measured for the compound `Cc1cc(Nc2cc(N3CCN(C)CC3)nc(Sc3ccc(NC(=O)C4CC4)cc3)n2)n[nH]1` turned out to be 5.98

Summary for this compound, `Oc1cc(-c2nc(-c3ccccc3)[nH]c2-c2ccncc2)ccc1Cl` : GI50 is 4.39

Recorded GI50 (compound `CCn1cc(-c2ccnc3[nH]c(-c4cccc(CN(C)C)c4)cc23)c(-c2ccc(NC(=O)N(C)C)cc2)n1` ): 5.51

Consider `NC(=O)Nc1sc(-c2ccc(F)cc2)cc1C(N)=O` . Its measured GI50 is 5.07

GI50 in this record for `CC(C)Oc1ccc(C(=O)N[C@H](CNC(=O)CN(C)C)Cc2ccc(-c3cn4cccc([C@H](C)O)c4n3)cc2)cc1Cl` : 6.77

GI50 reported for this compound `COc1cc2ncnc(Nc3cccc(Cl)c3)c2cc1OC` : 3.78

# GI50 (compound: `COc1cc2c(Nc3ccc(NC(=O)c4ccccc4)cc3)ncnc2cc1OCCCN1CCOCC1` ) is 4.98

The compound identified as `CC(C)[C@H](CO)Nc1nc(Nc2cccc(Cl)c2)c2ncn(C(C)C)c2n1` registered its GI50 at 3.78

Reported GI50 for `C=CCNC1=C2C[C@@H](C)C[C@H](OC)[C@H](O)[C@@H](C)/C=C(\C)[C@H](OC(N)=O)[C@@H](OC)/C=C\C=C(/C)C(=O)NC(=CC1=O)C2=O` was 6.86

Form field GI50, entry `N#Cc1c(NC(=O)c2cccc3ccccc23)sc2c1CCCC2` : 4.21

Notebook: `O=c1[nH]c2ccccc2n1C1CCN(Cc2ccc(-c3nc4cc5[nH]cnc5cc4nc3-c3ccccc3)cc2)CC1` , GI50 read as 4.87

The reported GI50 of the compound O=S(=O)(CC1CS1)c1ccc(Oc2ccccc2)cc1 (centres unmarked) was 4.00

Summary for this compound, `CC(/C=C/C(=O)NO)=C\[C@@H](C)C(=O)c1ccc(N(C)C)cc1` : GI50 is 4.77

Per the records, this compound ( `CC(C)(C)c1cc(C=C(C#N)C#N)cc(Br)c1O` ) has GI50 equal to 4.58

Consider `COc1ccc(C2=N[C@@H](c3ccc(Cl)cc3)[C@@H](c3ccc(Cl)cc3)N2C(=O)N2CCNC(=O)C2)c(OC(C)C)c1` . Its measured GI50 is 4.67

Just so you know, measured GI50 for `N.N.O=C([O-])C1(C(=O)[O-])CCC1.[Pt+2]` came out at 3.85

====

System: panel of 55 breast cancer cell lines
run-description: Cell growth inhibition assay (Cell Titer Glo, 72 h, 9 doses; GI50, TGI, LC50)
Assay type: cell-based, human
particulars: cell line SUM149PT; value is the negative log10 of mol/L
value-kind: GI50
Please respond with just the number, no unit label.

Sample O=C1C(Cl)=C(NCCN2CCOCC2)C(=O)c2ncccc21 [NSC 663284] , system: panel of 55 breast cancer cell lines. Its GI50 is 5.74

Assay panel of 55 breast cancer cell lines, sample COc1cccc(-c2cc(=O)c3ccccc3o2)c1N [PD 98059] , GI50 read: 4.44

The observed GI50 for CC(C)Oc1ccc(C(=O)N[C@H](CNC(=O)CN(C)C)Cc2ccc(-c3cn4cccc([C@H](C)O)c4n3)cc2)cc1Cl [GSK923295] when tested with panel of 55 breast cancer cell lines stands at 7.17

Here CC(C)[C@H](CO)Nc1nc(Nc2cccc(Cl)c2)c2ncn(C(C)C)c2n1 [Purvalanol A] was tested on panel of 55 breast cancer cell lines, and its GI50 came to 4.88

The molecule CCNCCCCNCCCCNCCCCNCCCCNCC=CCNCCCCNCCCCNCCCCNCCCCNCC.Cl.Cl.Cl.Cl.Cl.Cl.Cl.Cl.Cl.Cl (stereo in doubt) [CGC-11144] , when measured on panel of 55 breast cancer cell lines, yielded GI50 of 6.53

Record for Cc1cc(C(=O)N2CCN(c3cccc(Cl)c3)CC2)n(-c2ccccc2)n1 [XRP44X] under target or system panel of 55 breast cancer cell lines: GI50 reported as 5.63

Note to self: GI50 of C=CCNC1=C2C[C@@H](C)C[C@H](OC)[C@H](O)[C@@H](C)/C=C(\C)[C@H](OC(N)=O)[C@@H](OC)/C=C\C=C(/C)C(=O)NC(=CC1=O)C2=O [17-AAG] with panel of 55 breast cancer cell lines was 7.00

Simply: CC(=O)Nc1cccc(-n2c(=O)n(C3CC3)c(=O)c3c(Nc4ccc(I)cc4F)n(C)c(=O)c(C)c32)c1.C[S+](C)[O-] [GSK1120212B] , panel of 55 breast cancer cell lines, GI50 = 7.51
